All figures here come from PubChem BioAssay (NCI).

- Tested on: ACHN renal
- experiment-summary: NCI-60 one-dose screen, 48 h
- condition-set: 10 µM unless noted
Compounds without any hit were thinned out: in the full panel of roughly 83,000, 20% have a hit. Calls of active or inactive are those of the source. How the source made its calls: active means growth percent below 10; inactive means the rest.
Classes used: y (active), n (inactive)

1) C[C@]12C[C@@H](c3ccoc3)OC(=O)[C@@H]1CC[C@]1(C)[C@@H]2CC[C@@H](O)[C@]1(C)O : n
2) C#Cc1nc2ccccc2c(=O)[nH]1 : y
3) COc1ccc(C(=O)c2sc3nc4c(c(C(F)(F)F)c3c2N)CN(C(C)=O)CC4)cc1OC : n
4) CN1CCN(Cc2ccc(NC(=O)c3cncc(C#Cc4c(N)ncc5ccc(C#N)cc45)c3)cc2C(F)(F)F)CC1 : y
5) O=C1C=CC(Nc2ccccc2[N+](=O)[O-])C1Nc1ccccc1[N+](=O)[O-] (configuration not stated) : y
6) Cc1ccc(Nc2nc(N)nc(Nc3ccc4ccccc4c3)n2)cc1 : n
7) COc1ccc(-c2nn(-c3ccccc3)cc2/C=C2\SC(=O)NC2=O)cc1 : n
8) NC(CC(=O)O)C(=O)OCc1ccccc1 (configuration not stated) : n
9) Cc1ccc(C2CC3c4ccccc4C2C2CCCCN32)cc1 (configuration not stated) : n
10) COc1cc2nc3cc([N+](=O)[O-])ccc3c(NCCCNCC(C)(C)O)c2cc1OC : y
11) Cc1cc(N/N=C/c2nc(-c3ccc(Cl)cc3)oc2C)c2cc(Cl)ccc2n1 : n
12) CCCCCC(=O)N(CCCC)CCCC : n
13) CCOC(=O)c1cnc2ccc(Br)cc2c1Nc1cccc(S(=O)(=O)NC)c1 : n
14) Cc1ccn2c(-c3csc(Nc4cccc(O)c4)n3)c(C)nc2c1 : n
15) CC1=C(NCCN2CCCC2)C(=O)c2c(OCc3ccc(F)c(Cl)c3)cccc2C1=O : n
16) C/C(=C(/c1ccc(O)cc1)c1ccc(OCCN2CCCC2)cc1)c1ccccc1 : n
17) N=c1c2ccccc2nc2n1CCCCC2 : n
18) O=C1Nc2ccccc2C12CC(c1ccccc1)=NN2 (configuration not stated) : n
19) CN(C)CC(=O)Nc1ccc(Cn2nnc3c2C(=O)c2nnn(Cc4ccc(NC(=O)CN(C)C)cc4)c2C3=O)cc1 : y
20) Cc1nn(-c2nc3ccccc3[nH]2)c2c1C(c1ccc3c(c1)OCO3)CC(=O)N2 (configuration not stated) : n
21) COc1ccc(CCN2CCCn3c2nc2ccccc2c3=O)cc1 : n
22) Oc1cc(O)c2c(=S)cc(-c3ccc(Cl)cc3)oc2c1 : n
23) COc1ccc(-n2cc(-c3ccccc3)c3c(SCC(=O)N/N=C/c4ccc([N+](=O)[O-])cc4)ncnc32)cc1 : n
24) Cc1cc(-c2nc3ccccc3s2)ccc1NC(=O)COc1ccc(Cl)cc1 : n
25) COc1ccc(S(=O)(=O)NCCNc2nccc(-c3c(-c4cccc(N)c4)nc4sccn34)n2)cc1 : n
26) CC(C)C1=C[C@@]23CC[C@@H]4[C@](C)(CCC[C@@]4(C)C(=O)OCC#CCN4CCCC4)[C@H]2C[C@@H]1[C@H]1C(=O)OC(=O)[C@H]13 : n
27) CCN(C(=O)CN1CCN(c2cc3c(cc2F)c(=O)c(C(=O)O)cn3C2CC2)CC1)c1nc(-c2ccc(OC)cc2)cs1 : n
28) Cn1c2ccccc2c2c3c(c4c5ccccc5[nH]c4c21)C(=O)N(N)C3=O : n
29) CC(C)CC(CC1=CCC2CC1C2(C)C)C1=C(O)C(C)(C)C(=O)C(C)(C)C1=O (configuration not stated) : y
30) Nc1cccc(NC(=O)C(=O)Nc2cccc(N)c2)c1 : n
31) CNC(=S)N/N=C/CSC/C=N/NC(=S)NC : n
32) NCCN1CCN(c2nccc(-c3ccc4ccccc4c3)n2)CC1 : n
33) COC1C/C(=N\O)C2OC(c3ccccc3)OCC2O1 (configuration not stated) : n
34) CCOC(=O)/C=C/c1ccc(C(=O)OCC)[nH]1 : n
35) O=C(CNC1C2CC3CC(C2)CC1C3)Sc1nnc2sc3ccccc3n12 (configuration not stated) : n
36) CCCCCCCCCCCCCCCCCCSC1=CC(=O)C(OC)=C(OC)C1=O : n
37) O=C(CN1CCN(c2cc3c(cc2F)c(=O)c(C(=O)N/N=C/c2ccccc2)cn3C2CC2)CC1)N/N=C\c1ccccc1 : n
38) CC(=O)OCC(=O)C1CCC=CC1OC(C)=O (configuration not stated) : n
39) O=c1c2cccc3c(Nc4c(F)cccc4F)ccc(c32)c2nc3ccccc3n12 : n
40) O=C1CCc2c(sc3[nH]c(=S)n(Cc4ccccc4)c(=O)c23)C1 : n
41) COc1ccc(N(Cc2cc(OC)c(OC)c(OC)c2)C2OC(=O)c3ccccc32)cc1 (configuration not stated) : n
42) CCCCN(CCCC)CCC(C)(O)c1cc2ccccc2c2ccccc12 (configuration not stated) : n
